- procedureSummary: Standard protocol for determination of kcat and KM (continuous spectrophotometric assay, Acetyl CoA hydrolysis at 235 nm)
- Type: biochemical
- testConditions: purified protein; about 23° C.; pH 6.8; 0.2 mM acetyl CoA; glyphosate 0.125 to 10 mM
measurementType: Km (mM)

SEQ ID NO: 472: GAT polypeptide (protein, 1_2D2, GAT polypeptide) MIEVKPINAEDTYELRHKILRPNQPLEACMYESDLLRSAFHLGGFYRGKLISIASFHKAEHSELQGQKQYQLRGMATLEGYRDQKAGSSLIRHAEEILRKRGADMLWCNARTSAAGYYKRLGFSEQGEVFDTPPVGPHILMYKRIT
1.2
SEQ ID NO: 315: GAT polypeptide (protein, 14_4H8, GAT polypeptide) MIEVKPINAEDTYEIRHRILRPNQPLEACKYETDLLGSTFHLGGYYRGKLISIASFHQAEHPELEGQKQYQLRGMATLEGYREQKAGSTLIRHAEELLRKKGADLLWCNARTSASGYYKKLGFSEQGEVYDTPPVGPHILMYKKLT
2
